property_measured: melting point

Cn1nc2c(-c3ccc(Cl)cc3Cl)cccc2c1/C=C/c1nnn[nH]1 [I-47]
256.8 to 258.1 °C
Cn1nc2c(-c3ccc(Cl)cc3Cl)cccc2c1Cc1nc[nH]n1 [I-31]
206.3 to 207 °C
Cn1nc2c(-c3ccc(Cl)cc3Cl)cccc2c1CCc1ncn[nH]1 [I-34]
92 to 115.5 °C
Cn1nc2c(-c3ccc(Cl)cc3Cl)cccc2c1C(=O)c1nnn[nH]1 [I-18]
209.8 to 210.3 °C
Cn1nc2c(-c3ccc(Cl)cc3Cl)cccc2c1Cc1nnnn1CCO [I-10]
66.1 to 87.2 °C

Qu. Give the measured melting point for Cn1nnc(Cc2c3cccc(-c4ccc(Cl)cc4Cl)c3nn2C)n1 [I-33]
Ans. 158.8 to 160.5 °C

====

- assayed_system: GABAA α1β2γ2 (Homo sapiens, UniProt P14867+P18507+P47870)
- Construct: expressed in transfected cells; host or cells: HEK293
- Sequence (P14867 28-456): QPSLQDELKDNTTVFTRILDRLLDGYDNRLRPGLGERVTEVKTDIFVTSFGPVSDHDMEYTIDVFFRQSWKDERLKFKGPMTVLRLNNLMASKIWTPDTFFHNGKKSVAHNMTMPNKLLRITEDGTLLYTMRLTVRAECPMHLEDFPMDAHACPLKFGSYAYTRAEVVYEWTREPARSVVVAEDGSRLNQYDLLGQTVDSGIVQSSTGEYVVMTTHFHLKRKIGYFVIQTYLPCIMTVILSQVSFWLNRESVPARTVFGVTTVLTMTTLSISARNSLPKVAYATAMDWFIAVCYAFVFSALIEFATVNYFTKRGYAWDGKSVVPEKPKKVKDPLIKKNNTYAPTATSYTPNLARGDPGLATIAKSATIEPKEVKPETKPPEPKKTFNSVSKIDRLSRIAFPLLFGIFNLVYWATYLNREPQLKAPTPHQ
- Sequence (P47870 25-512 limits assumed): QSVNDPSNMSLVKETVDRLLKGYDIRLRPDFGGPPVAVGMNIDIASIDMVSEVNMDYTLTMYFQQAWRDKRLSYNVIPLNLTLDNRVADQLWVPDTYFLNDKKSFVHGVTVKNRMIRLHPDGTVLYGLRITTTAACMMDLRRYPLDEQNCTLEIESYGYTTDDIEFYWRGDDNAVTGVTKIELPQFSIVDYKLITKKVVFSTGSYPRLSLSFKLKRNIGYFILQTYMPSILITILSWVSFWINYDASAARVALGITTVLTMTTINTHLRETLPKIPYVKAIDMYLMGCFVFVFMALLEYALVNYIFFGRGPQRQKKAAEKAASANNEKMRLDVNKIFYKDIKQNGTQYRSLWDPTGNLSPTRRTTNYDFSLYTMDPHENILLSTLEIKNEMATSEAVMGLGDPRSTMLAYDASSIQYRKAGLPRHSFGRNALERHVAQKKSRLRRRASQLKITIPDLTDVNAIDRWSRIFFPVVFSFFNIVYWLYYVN
- Sequence (P18507 40-475): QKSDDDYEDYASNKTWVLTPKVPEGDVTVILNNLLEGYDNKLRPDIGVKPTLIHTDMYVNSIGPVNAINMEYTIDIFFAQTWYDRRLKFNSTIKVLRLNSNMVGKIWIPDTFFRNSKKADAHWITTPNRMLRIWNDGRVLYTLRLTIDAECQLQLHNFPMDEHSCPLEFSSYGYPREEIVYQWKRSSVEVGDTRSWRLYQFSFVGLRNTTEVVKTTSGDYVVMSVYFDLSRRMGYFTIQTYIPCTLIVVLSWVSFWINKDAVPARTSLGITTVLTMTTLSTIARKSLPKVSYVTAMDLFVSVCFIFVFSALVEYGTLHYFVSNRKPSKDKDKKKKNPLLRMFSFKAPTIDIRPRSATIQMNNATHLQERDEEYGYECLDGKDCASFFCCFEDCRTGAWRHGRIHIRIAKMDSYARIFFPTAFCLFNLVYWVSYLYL
- run_description: 35S-TBPS binding assay, HEK293 membranes with GABAA α1β2γ2 construct
- particulars: 35S-TBPS 5 nM, GABA 1 μM, 2 hours at room temperature, read-out: α1β2γ2 (35S-TBPS binding, pIC50) (converted)
property_measured: IC50

Cn1nc2c(-c3ccc(Cl)cc3Cl)cccc2c1CC1=NCCN1
> 10 µM
Cn1nc2c(-c3ccc(Cl)cc3Cl)cccc2c1-n1cnnc1
> 10 µM
Cn1nc2c(-c3ccc(Cl)cc3Cl)cccc2c1Cn1nccn1
> 10 µM
Cn1nc2c(-c3ccc(Cl)cc3Cl)cccc2c1CCc1nnn[nH]1
0.479 µM
Cn1nc2c(-c3ccc(Cl)cc3Cl)cccc2c1-c1cnc[nH]1
7.24 µM

Qu. Give IC50 for Cc1noc(-c2c3cccc(-c4ccc(Cl)cc4Cl)c3nn2C)n1 tested on GABAA α1β2γ2 (Homo sapiens, UniProt P14867+P18507+P47870).
Ans. > 10 µM

Qu. Give IC50 for COCn1ncnc1C(=O)c1c2cccc(-c3ccc(Cl)cc3Cl)c2nn1C tested on GABAA α1β2γ2 (Homo sapiens, UniProt P14867+P18507+P47870).
Ans. > 10 µM

Qu. Give IC50 for Cn1nc2c(-c3ccc(Cl)cc3Cl)cccc2c1CCC1=NCCN1 tested on GABAA α1β2γ2 (Homo sapiens, UniProt P14867+P18507+P47870).
Ans. > 10 µM

Qu. Give IC50 for Cn1nc2c(-c3ccc(Cl)cc3Cl)cccc2c1Cc1nnn[nH]1 tested on GABAA α1β2γ2 (Homo sapiens, UniProt P14867+P18507+P47870).
Ans. 2.24 µM

Qu. Give IC50 for Cn1nc2c(-c3ccc(Cl)cc3Cl)cccc2c1Cc1ncc[nH]1 tested on GABAA α1β2γ2 (Homo sapiens, UniProt P14867+P18507+P47870).
Ans. 3.55 µM

Qu. Give IC50 for Cn1nc2c(-c3ccc(Cl)cc3Cl)cccc2c1C(=O)c1nccn1CCO tested on GABAA α1β2γ2 (Homo sapiens, UniProt P14867+P18507+P47870).
Ans. 3.72 µM

Qu. Give IC50 for CCOC(=O)Cc1nnnn1Cc1c2cccc(-c3ccc(Cl)cc3Cl)c2nn1C tested on GABAA α1β2γ2 (Homo sapiens, UniProt P14867+P18507+P47870).
Ans. > 10 µM

Qu. Give IC50 for Cn1nc2c(-c3ccc(Cl)cc3Cl)cccc2c1-c1nnco1 tested on GABAA α1β2γ2 (Homo sapiens, UniProt P14867+P18507+P47870).
Ans. > 10 µM

Qu. Give IC50 for Cn1nc2c(-c3ccc(Cl)cc3Cl)cccc2c1C(=O)c1ncn[nH]1 tested on GABAA α1β2γ2 (Homo sapiens, UniProt P14867+P18507+P47870).
Ans. > 10 µM
